Assay: chemical genetic growth profiling, strain panel (AID 1159580);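 note: tested at 20 µM; growth read once vehicle control cultures reached saturation at 30 °C; 1 = growth at the plate median or of vehicle wells; lower values mean less growth of the strain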
Details: S. cerevisiae deletion strains, growth OD, locus YLR418C, strain cdc73, active compounds read low
About 2,000 (36%) of roughly 5,500 compounds were called active. Roughly 18% stayed inconclusive and do not appear here. The list shows a part of the results.
Each entry below carries its recorded normalized growth.
Lab note: record the figure alone, no unit after it.

Solved entries:
Query: Bench note: what normalized growth did "CC/C(=C(\c1ccccc1)c1ccc(OCCN(C)C)cc1)c1ccccc1" show?
Reply: 0.105

Query: Another compound to look at: "CCCCC1=NC2(CCCC2)C(=O)N1Cc1ccc(-c2ccccc2-c2nn[nH]n2)cc1"
Reply: 0.993

Query: Another compound to look at: "CCN(CC)CCOc1ccc(/C(=C(\Cl)c2ccccc2)c2ccccc2)cc1"
Reply: 0.0928

Query: Another compound to look at: C=CC(C1=CC(=O)C(OC)=CC1=O)c1ccc(OC)cc1 (stereo unspecified)
Reply: 0.783

Query: Another compound to look at: "CN/C(=C\[N+](=O)[O-])NCCSCc1ccc(CN(C)C)o1"
Reply: 0.994

New cases:
Query: Bench note: what normalized growth did C=CCC1(C(C)CCC)C(=O)N=C(S)NC1=O (stereo unspecified) show?
Reply: 1.04

Query: Another compound to look at: "C1CNCCN1"
Reply: 0.994

Query: Another compound to look at: C=CC(C1=CC(=O)C(OC)=CC1=O)c1ccccc1 (stereo unspecified)
Reply: 0.774

Query: Another compound to look at: "O=C(O[C@@H]1Cc2c(O)cc(O)cc2O[C@@H]1c1cc(O)c(O)c(O)c1-c1c([C@H]2Oc3cc(O)cc(O)c3C[C@H]2O)cc(O)c(O)c1O)c1cc(O)c(O)c(O)c1"
Reply: 0.238

Query: Another compound to look at: "COc1cc(C(=O)NCc2ccc(OCCN(C)C)cc2)cc(OC)c1OC"
Reply: 1.01

Query: Another compound to look at: CCCC1O[C@@H]2CC3C4CCC5=CC(=O)C=CC5(C)C4[C@@H](O)CC3(C)[C@]2(C(=O)CO)O1 (stereo partly specified)
Reply: 0.978

Query: Another compound to look at: "O=C(O)CCC(=O)C(=O)O"
Reply: 1.02

Query: Another compound to look at: CN(C)CCOC(C)(c1ccccc1)c1ccccn1 (stereo unspecified)
Reply: 0.98

Query: Another compound to look at: COc1ccccc1OCCNCC(O)COc1cccc2[nH]c3ccccc3c12 (stereo unspecified)
Reply: 0.999

Query: Another compound to look at: CC1(C)C(O)CC(O)C2(C)C1CC(=O)C1(C)C2CCC2(C)C(C(=O)O)OC(=O)C3OC321 (stereo unspecified)
Reply: 1

Query: Another compound to look at: "COc1ccc(C(Cl)=C(c2ccc(OC)cc2)c2ccc(OC)cc2)cc1"
Reply: 1.06

Query: Another compound to look at: "Cc1ccc(/C(=C\CN2CCCC2)c2ccccn2)cc1"
Reply: 0.991

Query: Another compound to look at: "C=C(CC)C(=O)c1ccc(OCC(=O)O)c(Cl)c1Cl"
Reply: 1

Query: Another compound to look at: "CS(=O)(=O)CCCCN=C=S"
Reply: 0.645

Query: Another compound to look at: CCCC(C)C1(CC)C(=O)NC(=O)NC1=O (stereo unspecified)
Reply: 1.05

Query: Another compound to look at: "O=C(O)CF"
Reply: 1.04

Query: Another compound to look at: "Cc1ccsc1/C=C/C1=NCCCN1C"
Reply: 0.956

Query: Another compound to look at: CCCC(C)C1(CC)C(=O)N=C(S)NC1=O (stereo unspecified)
Reply: 0.0993

====

Test: chemical genetic growth profiling, strain panel (AID 1159580)
Settings: S. cerevisiae deletion strains, growth OD, locus YLR342W, strain FKS1 (second series), active compounds read low
The campaign covered roughly 5,500 compounds. About 2,000 (36%) were called active. Inconclusive results (about 18%) are left out. This is one part of the list.
Each entry below carries its recorded normalized growth.
Lab note: record the figure alone, no unit after it.

Query: Bench note: what normalized growth did "Oc1c(Br)cc(Br)c2cccnc12" show?
Reply: 0.0742

Query: Another compound to look at: Nc1ncnc2c1ncn2C1O[C@H](COP(=O)(O)O)[C@@H](O)[C@H]1O (stereo partly drawn)
Reply: 1.04

Query: Another compound to look at: O=C(O)CCCCC1CCSS1 (stereo not drawn)
Reply: 0.945

Query: Another compound to look at: O=C1C=CC2=C3c4cc(O)c(O)cc4CC3(O)COC2=C1O (stereo not drawn)
Reply: 0.86

Query: Another compound to look at: "CCCCC1(COC(=O)CCC(=O)O)C(=O)N(c2ccccc2)N(c2ccccc2)C1=O"
Reply: 0.993

Query: Another compound to look at: "O=C(O)/C=C/C=C/c1ccccc1"
Reply: 0.882

Query: Another compound to look at: "Cc1ccc(/C(=C\CN2CCCC2)c2ccccn2)cc1"
Reply: 0.997

Query: Another compound to look at: "CC(=O)Nc1ccc(S(=O)(=O)Nc2ccc([N+](=O)[O-])cc2)cc1"
Reply: 0.995

Query: Another compound to look at: "CCC[C@H]1CC2=C(C[C@@H](CC)CC3=C1C(=O)OC3=O)C(=O)OC2=O"
Reply: 1.03

Query: Another compound to look at: "COc1c2c(cc3c1OCO3)CCN(C)C2"
Reply: 1.01

New cases:
Query: Bench note: what normalized growth did Nc1nc2c(ncn2C2C[C@H](O)[C@@H](CO)O2)c(=O)[nH]1 (stereo partly drawn) show?
Reply: 1.04

Query: Another compound to look at: "NCCCC[C@H](N[C@@H](CCc1ccccc1)C(=O)O)C(=O)N1CCC[C@H]1C(=O)O"
Reply: 1.05

====

Each entry below carries its recorded normalized growth.
Assay: chemical genetic growth profiling, strain panel (AID 1159580);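 note: tested at 20 µM; growth read once vehicle control cultures reached saturation at 30 °C; 1 = growth at the plate median or of vehicle wells; lower values mean less growth of the strain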
Details: S. cerevisiae deletion strains, growth OD, locus YHR079C, strain IRE1, active compounds read low
About 2,000 (36%) of roughly 5,500 compounds were called active. About 18% were inconclusive and are not listed. This is one part of the list.

Query: Bench note: what normalized growth did "S=C(N/N=C\c1ccc(Cl)cc1)N/N=C\c1ccc(Cl)cc1" show?
Reply: 0.588 (inactive)

Query: Another compound to look at: "CCCc1c(C(=O)NC2Cc3ccccc3C2)cnn1-c1ccccc1"
Reply: 1 (inactive)

Query: Another compound to look at: "CC(=O)/C(=C\c1ccccc1)CC(=O)O"
Reply: 0.954 (inactive)

New cases:
Query: Bench note: what normalized growth did CCC(Cc1c(I)cc(I)c(N)c1I)C(=O)O (stereo unspecified) show?
Reply: 0.135 (active)

Query: Another compound to look at: "CC(C)=CCC/C(C)=C/CC/C(C)=C/CC/C(C)=C/CC/C(C)=C/CC/C(C)=C/CC/C(C)=C/CC/C(C)=C/CC/C(C)=C/CO"
Reply: 1.01 (inactive)

Query: Another compound to look at: O=C1CSC(c2cccnc2)N1c1ccc(Cl)cc1Cl (stereo unspecified)
Reply: 0.964 (inactive)

Query: Another compound to look at: COc1ccccc1OCCNCC(O)COc1cccc2[nH]c3ccccc3c12 (stereo unspecified)
Reply: 0.999 (inactive)

Query: Another compound to look at: CC(C)(O/N=C(/C(=O)N[C@@H]1C(=O)N2C(C(=O)[O-])=C(C[n+]3ccccc3)CSC12)c1csc(N)n1)C(=O)O (stereo partly specified)
Reply: 1.02 (inactive)

====

Assay: chemical genetic growth profiling, strain panel (AID 1159580);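 note: tested at 20 µM; growth read once vehicle control cultures reached saturation at 30 °C; 1 = growth at the plate median or of vehicle wells; lower values mean less growth of the strain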
Conditions: S. cerevisiae deletion strains, growth OD, locus YKL068W, active compounds read low
The campaign covered roughly 5,500 compounds. About 2,000 (36%) were called active. Not shown: some 18% with an inconclusive outcome. Some of the results follow.
Each entry below carries its recorded normalized growth.
Lab note: record the figure alone, no unit after it.

Query: Bench note: what normalized growth did CC1(C)C(=O)C=C[C@@]2(C)C1=C(O)C(=O)[C@]1(C)C2CC[C@@]2(C)[C@H](c3ccoc3)C[C@H]3O[C@]321 (stereo partly drawn) show?
Reply: 0.942

Query: Another molecule to look at: "O=C(O)CF"
Reply: 1.01

Query: Another molecule to look at: "CN[C@H](CC(=O)O)C(=O)O"
Reply: 1.01

Query: Another molecule to look at: CC1(C)C(O)CC(O)C2(C)C1CC(=O)C1(C)C2CCC2(C)C(C(=O)O)OC(=O)C3OC321 (stereo not drawn)
Reply: 1

Continue with the molecule presented below.
Query: Bench note: what normalized growth did "O=C(O)c1ccccc1Nc1cccc(C(F)(F)F)c1" show?
Reply: 0.99

====

Test: chemical genetic growth profiling, strain panel (AID 1159580);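 note: tested at 20 µM; growth read once vehicle control cultures reached saturation at 30 °C; 1 = growth at the plate median or of vehicle wells; lower values mean less growth of the strain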
Conditions: S. cerevisiae deletion strains, growth OD, locus YJR075W, strain HOC1
About 2,000 (36%) of roughly 5,500 compounds were called active. Not shown: some 18% with an inconclusive outcome. Cut-off read from the data, not from the text of the source: active = normalized growth mostly below about 0.91 (no sharp cut-off); inconclusive = no clear call, values can overlap the other calls; inactive = mostly above about 0.92. The list shows a part of the results.
Returns: one label drawn from active, inactive

Query: Could you kindly confirm the outcome this assay logged for O=C1OC2COC(=O)C2C=C1NC(=O)c1ccc(Cl)cc1 (stereo unspecified) ?
Reply: active

Query: Another compound to look at: "COc1ccc(-c2ccnc(SCC(=O)NCCSCc3ccco3)n2)cc1"
Reply: inactive

Query: Another compound to look at: CN1CCCC12NCCc1c2[nH]c2ccccc12 (stereo unspecified)
Reply: inactive

Query: Another compound to look at: "CN(C)C=Nc1nnc(Sc2ncccc2[N+](=O)[O-])s1"
Reply: inactive

Query: Another compound to look at: "O=C(NCCSCc1ccc(Cl)cc1)c1ccc(Cl)cc1"
Reply: inactive

Query: Another compound to look at: "O=C(NCCSCc1ccco1)c1ccc(Cl)cc1"
Reply: inactive
